System: SKBR3
Assay: MTT assay, SKBR3 breast cancer cell line
Assay type: cell-based
Details: Homo sapiens, SK-BR-3; SKBR3, mean of three independent MTT experiments; read-out: AF IC50
EXPERIMENTAL_READOUT: pIC50
Note: pIC50 values are expressed as the negative base-10 logarithm of concentration in M.

Ask: Form field: reported pIC50 of "Cc1c(F)c(N)c2c(=O)cc(-c3ccc(N)c(F)c3)oc2c1F"
Reply: 7.80

---

Tested on: A2780
Experiment: Cytotoxicity, A2780 ovarian cancer cell line
Format: cell-based
Conditions: Homo sapiens
EXPERIMENTAL_READOUT: IC50 (µM)
Answer format: numeric, µM implied, no suffix.

Ask: Request: IC50, test system A2780, entry Cc1c(F)c(N)c2c(=O)cc(-c3ccc(NC(=O)[C@@H](N)CCCCN)c(F)c3)oc2c1F [AFP464]
Reply: 5

Cited source for all entries: patent US20100016421A1
